Assign pEC50 to each entry below.
# target_or_test_system: mAChR M4 (UniProt P08173)
# Construct: hM1 and hM4 cDNAs were purchased from Missouri S&T cDNA Resource
# assay_details: mAChR M4 cell-based functional assay (calcium mobilization, Fluo-4, FDSS)
# experimental_context: positive allosteric modulator activity: concentration-dependent increase in the EC20 acetylcholine response, CHO-K1 cells; >10 μM estimated for low potency (no plateau)
# Experimental: Chinese hamster ovary (CHO-K1) cells stably expressing rat (r)M1 were purchased from the American Type Culture Collection and cultured according to their indicated protocol. […] Calcium flux was measured using the Functional Drug Screening System (FDSS) 6000 (Hamamatsu Corporation, Tokyo, Japan) as an increase in the fluorescent static ratio. […] Agonist activity was analyzed as a concentration-dependent increase in calcium mobilization upon compound addition. […]
pEC50: −log10 of the molar value.

Exercise: Quick one: give measured pEC50 for COc1ccc(Cn2nc(N(C)C)c3sc4nc(C)cc(C)c4c32)cc1
Key: < 5.00

Exercise: Identify the reported pEC50 for the following entry. Cc1cc(C)c2c(n1)sc1c(NCCC(C)(C)C)n[nH]c12
Key: < 5.00

Exercise: Specify pEC50 for Cc1cc(C)c2c(n1)sc1c(NCC3CCN(C(=O)OC(C)(C)C)CC3)nn(C)c12 and stop.
Key: < 5.00

Exercise: Supply pEC50 value. Item: CCOC(=O)CNc1n[nH]c2c1sc1nc(C)cc(C)c12
Key: < 5.00
